This collection of values is drawn from patent US20210087522.

Give measured kcat for each item. Keep answers brief.
system: AprACP, ACP of the apratoxin (PK/NRP) gene cluster in Lyngbya sp.
Give your result as the value with the unit written after it.

Find the recorded kcat belonging to Sfp, phosphopantetheinyl transferase from Bacillus subtilis (protein) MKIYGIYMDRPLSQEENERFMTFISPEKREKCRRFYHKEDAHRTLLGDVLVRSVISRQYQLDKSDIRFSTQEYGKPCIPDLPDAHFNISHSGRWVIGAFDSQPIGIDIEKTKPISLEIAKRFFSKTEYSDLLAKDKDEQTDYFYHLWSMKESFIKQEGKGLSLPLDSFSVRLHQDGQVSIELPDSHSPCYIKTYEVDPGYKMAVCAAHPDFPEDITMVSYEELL and report it.
0.0483 s⁻¹

Find the recorded kcat belonging to MPPT, Sfp-like phosphopantetheinyl transferase (PPTase) from Microcystis aeruginosa NIES843 (protein) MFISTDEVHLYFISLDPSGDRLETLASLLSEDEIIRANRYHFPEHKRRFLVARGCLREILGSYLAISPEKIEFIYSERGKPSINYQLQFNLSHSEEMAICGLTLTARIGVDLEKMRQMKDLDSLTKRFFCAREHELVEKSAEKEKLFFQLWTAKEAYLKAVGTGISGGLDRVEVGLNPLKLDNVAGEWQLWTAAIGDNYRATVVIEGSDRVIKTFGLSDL and report it.
0.173 s⁻¹

Find the recorded kcat belonging to SPPT, Sfp-like phosphopantetheinyl transferase (PPTase) from Synechocystis sp. PCC6803 (protein) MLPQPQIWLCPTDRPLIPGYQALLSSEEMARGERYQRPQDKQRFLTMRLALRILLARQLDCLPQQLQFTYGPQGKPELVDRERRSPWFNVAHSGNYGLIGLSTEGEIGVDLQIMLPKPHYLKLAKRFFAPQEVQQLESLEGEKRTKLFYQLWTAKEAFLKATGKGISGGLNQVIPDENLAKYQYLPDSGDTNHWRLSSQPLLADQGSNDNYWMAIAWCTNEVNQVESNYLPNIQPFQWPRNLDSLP and report it.
0.218 s⁻¹

Find the recorded kcat belonging to APPT, Sfp-like phosphopantetheinyl transferase (PPTase) from Anabaena sp. PCC7120 (protein) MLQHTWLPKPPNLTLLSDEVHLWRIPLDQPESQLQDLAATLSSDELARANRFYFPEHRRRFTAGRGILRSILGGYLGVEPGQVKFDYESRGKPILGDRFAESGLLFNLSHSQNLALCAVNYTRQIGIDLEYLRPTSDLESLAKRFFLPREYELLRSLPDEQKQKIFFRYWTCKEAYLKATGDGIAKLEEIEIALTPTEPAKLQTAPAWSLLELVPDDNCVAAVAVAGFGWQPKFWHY and report it.
0.238 s⁻¹
